biological target: MC5-R (Homo sapiens); experiment: Competitive inhibition assay using [I^125]-NDP-α-MSH, hMC5-R membranes; format: binding; set-up: expressed in transfected cells; conditions: read-out: Ki (nM) (NDP-α-MSH) In Normal System, MC5-R
Sequence (P33032 whole entry): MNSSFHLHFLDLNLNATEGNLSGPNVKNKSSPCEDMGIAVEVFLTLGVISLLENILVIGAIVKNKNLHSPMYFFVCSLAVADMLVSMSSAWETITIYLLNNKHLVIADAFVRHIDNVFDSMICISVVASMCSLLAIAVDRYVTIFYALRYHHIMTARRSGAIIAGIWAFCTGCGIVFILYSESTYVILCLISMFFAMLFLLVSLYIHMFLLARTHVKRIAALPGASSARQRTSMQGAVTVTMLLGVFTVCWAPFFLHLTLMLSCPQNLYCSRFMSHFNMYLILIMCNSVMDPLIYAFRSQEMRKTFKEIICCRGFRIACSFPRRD
Binarize Ki at 800 nM; below is TRUE, at or above is FALSE.

Please review the entries below; each comes with its answer.
{"Smiles Data": "C[C@@H]1CN(C(=O)[C@H](N)Cc2ccc3ccccc3c2)[C@@H](CCCNC(=N)N)CN1C(=O)Cc1ccc2ccccc2c1", "Category Label": "TRUE"}
{"Smiles Data": "CC(=O)N[C@H](Cc1ccc2ccccc2c1)C(=O)N1C[C@@H](C)N(C(=O)Cc2ccc3ccccc3c2)C[C@@H]1CCCNC(=N)N", "Category Label": "FALSE"}

Input line: State whether 800 nM exceeds Ki recorded for CC(=O)N[C@H](Cc1ccc(C)cc1C)C(=O)N1C[C@@H](C)N(C(=O)Cc2ccc3ccccc3c2)C[C@@H]1CCCNC(=N)N .
Output line: TRUE

Input line: State whether 800 nM exceeds Ki recorded for CCNC(=O)[C@@H]1CCCCNC(=O)C[C@H](NC(C)=O)C(=O)N[C@@H](Cc2c[nH]cn2)C(=O)N[C@H](Cc2ccccc2)C(=O)N[C@@H](CCCNC(=N)N)C(=O)N[C@@H](Cc2c[nH]c3ccccc23)C(=O)N1 .
Output line: FALSE

Input line: State whether 800 nM exceeds Ki recorded for CC(=O)N[C@H](Cc1ccc(Cl)cc1C)C(=O)N1C[C@@H](C)N(C(=O)Cc2ccc3ccccc3c2)C[C@@H]1CCCNC(=N)N .
Output line: TRUE
